System: ftFliB (FleBt-FliB) (Salmonella enterica)
Sequence (Q56106 whole entry): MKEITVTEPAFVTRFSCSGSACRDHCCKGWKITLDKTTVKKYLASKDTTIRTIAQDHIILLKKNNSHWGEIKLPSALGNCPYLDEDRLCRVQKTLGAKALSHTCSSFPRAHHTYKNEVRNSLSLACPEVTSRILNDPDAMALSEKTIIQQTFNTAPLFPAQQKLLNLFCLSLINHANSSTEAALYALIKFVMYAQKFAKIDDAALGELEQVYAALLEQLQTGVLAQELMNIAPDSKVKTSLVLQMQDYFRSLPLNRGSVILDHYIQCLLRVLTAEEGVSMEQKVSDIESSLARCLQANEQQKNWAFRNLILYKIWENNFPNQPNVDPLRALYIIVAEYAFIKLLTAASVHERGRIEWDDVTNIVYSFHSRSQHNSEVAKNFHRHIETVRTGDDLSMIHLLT
Measurement type: pKd
Interpret pKd as the negative base-10 log of the concentration measured in mol/L.

Provide the documented pKd with ftFliB (FleBt-FliB) (Salmonella enterica) as the system for C[S+](CC[C@H](N)C(=O)O)C[C@H]1O[C@@H](n2cnc3c(N)ncnc32)[C@H](O)[C@@H]1O (stereo partly shown) [SAM, S-adenosylmethionine]
4.98

Values compiled from paper PMC8598068.
